Task for the reader: assign each of the following binders its reported Inhibitory rate (%).
Target: T1, PCSK9 protein (UniProt Q8NBP7 31-692, limits assumed)
T1 construct: Kit reagent; also called proprotein convertase subtilisin/kexin type 9
Test: PCSK9-LDLR in vitro binding assay kit, OD450/540; peptide 10 µM; inhibition of PCSK9 binding to LDLR
Bridge positions count the residues as written; N and C are the ends. Ends that are not written are not given here.
Numbers only, in %.

Check out these entries, answers already filled in.
BINDER	ASSAY_RESULT
WEEYLDYVGICTASIPPICQGTVFTS (disulfide 11-19 (inferred), Contains an anti-elastase scaffold, with a disulfide bond between its two Cys) [PCSK9_6EC]	96.7
WEEALDWVGICTASIPPICQGTVFTS (disulfide 11-19 (inferred), Contains an anti-elastase scaffold, with a disulfide bond between its two Cys) [PCSK9_5EC]	85.2

Next binder, Inhibitory rate (%) to be filled in.
What measured Inhibitory rate (%) goes with TVFTSGFCTYSIPPQCYGWEEYLDWV (disulfide 8-16 (inferred), Contains an anti-chymotrypsin scaffold, with a disulfide bond between its two Cys) [PCSK9_9CH] ?
98.4
